Each recorded value in this set is attributed to patent US20250034266A1.

# MEASURED_TARGET: T1, human CCR8 (human, UniProt P51685 1-355)
# T1 construct: whole, on cells; also called hCCR8
# T1 sequence (P51685 whole entry): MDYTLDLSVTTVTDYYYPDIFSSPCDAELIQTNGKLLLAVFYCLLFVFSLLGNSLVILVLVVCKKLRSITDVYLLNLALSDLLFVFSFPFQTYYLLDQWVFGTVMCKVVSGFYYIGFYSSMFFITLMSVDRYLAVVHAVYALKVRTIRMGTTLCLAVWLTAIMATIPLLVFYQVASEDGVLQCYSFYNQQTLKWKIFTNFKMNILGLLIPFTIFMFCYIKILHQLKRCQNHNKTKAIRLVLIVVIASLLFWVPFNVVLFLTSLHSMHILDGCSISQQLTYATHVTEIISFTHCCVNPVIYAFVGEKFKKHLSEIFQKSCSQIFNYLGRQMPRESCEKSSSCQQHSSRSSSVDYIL
# TEST_METHOD_NOTES: FACS on CHO-K1-human CCR8 cells
Each record here notes measured pEC50.
Convention used: pEC50 is expressed as -log10 of the molar concentration.

Record excerpt, results attached:
Hu149-19 (antibody, human IgG1, V domains shown, human IgG1) VH: EVQLVESGGGLVQPGGSLKLSCAASGFTFNTYAMNWVRQASGKGLEWVGRIRSKSNFYATAYAASVKGRFTISRDDSKNTAYLQMNSLKTEDTAVYYCTRGREYGSSYAMDYWGQGTLVTVSS VL: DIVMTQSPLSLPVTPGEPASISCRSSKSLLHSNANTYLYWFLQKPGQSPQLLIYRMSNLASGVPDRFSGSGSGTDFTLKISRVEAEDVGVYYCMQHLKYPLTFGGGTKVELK yielded pEC50 of 9.79

The measured pEC50 associated with Hu149-21 (antibody, human IgG1, V domains shown, human IgG1) VH: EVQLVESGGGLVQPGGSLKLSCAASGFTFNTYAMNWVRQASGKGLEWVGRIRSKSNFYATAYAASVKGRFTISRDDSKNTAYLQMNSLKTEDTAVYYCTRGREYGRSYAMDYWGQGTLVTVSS VL: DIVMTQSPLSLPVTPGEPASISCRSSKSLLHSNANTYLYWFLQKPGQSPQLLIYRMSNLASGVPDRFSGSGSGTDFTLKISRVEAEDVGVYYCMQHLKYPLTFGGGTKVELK reads 9.19

New cases:
Looking up Hu149-14 (antibody, human IgG1, V domains shown, human IgG1) VH: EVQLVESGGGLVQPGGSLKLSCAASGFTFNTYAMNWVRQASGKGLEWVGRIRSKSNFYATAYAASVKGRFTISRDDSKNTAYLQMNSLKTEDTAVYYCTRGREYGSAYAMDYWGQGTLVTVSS VL: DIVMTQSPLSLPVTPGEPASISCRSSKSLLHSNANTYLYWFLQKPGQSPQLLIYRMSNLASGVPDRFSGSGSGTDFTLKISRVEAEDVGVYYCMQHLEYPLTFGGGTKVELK , I found its pEC50 recorded as 10.20
